The origin of these recorded values is patent US20080166749A1.

- EXPERIMENTAL_TARGET: protein kinase A catalytic subunit (Mus musculus, UniProt P05132)
- RUN_DESCRIPTION: Relative rate of phosphorylation by protein kinase A, ^32P incorporation
- Type: biochemical
- CONDITION_SUMMARY: relative to endogenous PKA motif HKFSV; sites inserted at the N-terminus of S65T GFP
Where no end group is shown, it is not given here.
MEASURED_PROPERTY: Relative rates of phosphorylation

Below, 3 substances whose answers are already recorded.
SUBSTANCE: 1MSRRDSCF: S65T GFP with N-terminal phosphorylation site MSRRDSCF (not fully specified (C-terminus); printed as 1MSRRDSCF)
Relative rates of phosphorylation: 2.1

SUBSTANCE: 1MRDSCLF: S65T GFP with N-terminal phosphorylation site MRDSCLF (not fully specified (C-terminus); printed as 1MRDSCLF)
Relative rates of phosphorylation: 3.7

SUBSTANCE: 1MSKRRDSL: GFP with N-terminal phosphorylation site MSKRRDSL; 7% of wild type fluorescence (not fully specified (C-terminus); printed as 1MSKRRDSL)
Relative rates of phosphorylation: 5.5

I: 1MRKGSCLF: S65T GFP with N-terminal phosphorylation site MRKGSCLF (not fully specified (C-terminus); printed as 1MRKGSCLF)
II: 1MRRESLLF: S65T GFP with N-terminal phosphorylation site MRRESLLF (not fully specified (C-terminus); printed as 1MRRESLLF)
III: 1MRKGSLLF: S65T GFP with N-terminal phosphorylation site MRKGSLLF (not fully specified (C-terminus); printed as 1MRKGSLLF)
-- ask Task field, ranking: reported Relative rates of phosphorylation, descending order. // respond by listing labels in the order requested
-- reply I, II, III
(I: 5.1, II: 3.0, III: 1.6)

----------
- EXPERIMENTAL_TARGET: protein kinase A catalytic subunit (Mus musculus, UniProt P05132)
- RUN_DESCRIPTION: Change in fluorescence after incubation with excess protein kinase A
- Format: biochemical
- CONDITION_SUMMARY: excess protein kinase A catalytic subunit, one hour at 30° C.; 488 nm excitation, 511 nm emission
Where no end group is shown, it is not given here.
MEASURED_PROPERTY: % Change in fluorescence (%)

Below, 3 substances whose answers are already recorded.
SUBSTANCE: 1MRKGSLLF: S65T GFP with N-terminal phosphorylation site MRKGSLLF (not fully specified (C-terminus); printed as 1MRKGSLLF)
UNIT_SPEC: %
% Change in fluorescence: 8.0
--
SUBSTANCE: 1MRRESLLF: S65T GFP with N-terminal phosphorylation site MRRESLLF (not fully specified (C-terminus); printed as 1MRRESLLF)
UNIT_SPEC: %
% Change in fluorescence: 6.0
--
SUBSTANCE: 1MSKRRDSL: GFP with N-terminal phosphorylation site MSKRRDSL; 7% of wild type fluorescence (not fully specified (C-terminus); printed as 1MSKRRDSL)
UNIT_SPEC: %
% Change in fluorescence: 5.1

A: 1MRKGSCLF: S65T GFP with N-terminal phosphorylation site MRKGSCLF (not fully specified (C-terminus); printed as 1MRKGSCLF)
B: 1MRDSCLF: S65T GFP with N-terminal phosphorylation site MRDSCLF (not fully specified (C-terminus); printed as 1MRDSCLF)
C: 1MSRRDSCF: S65T GFP with N-terminal phosphorylation site MSRRDSCF (not fully specified (C-terminus); printed as 1MSRRDSCF)
-- ask Ascending sort, % Change in fluorescence. // respond by listing labels in the order requested
-- reply A, B, C
(A: 5.7%, B: 17%, C: 25%)
